# ASSAYED_SYSTEM: Hypoxia-inducible factor 1-alpha (Homo sapiens)
# ASSAY_METHOD_TEXT: HIF-1a and HIF-2a reporter inhibitors, SAR follow-up, cell-based, luminescence, MIAPaCa-2, 786-0, panel (AID 652011)
# CONDITION_SUMMARY: MIAPaCa-2/PANC HIF reporter, luciferase luminescence, desferoxamine, overnight; HIF1a; mean of runs
MEASURED_METRIC: pIC50
Numbers only, as −log10 of the molar value.

Some compounds with known pIC50 results, for comparison:
stdin: # return recorded pIC50 for entry `CC(C)(C)c1ccc(-c2noc(CCC(=O)NC3CCCCC3)n2)cc1`
stdout: 4.42

stdin: # return recorded pIC50 for entry `CC(C)(C)c1ccc(-c2noc(CCC(=O)Nc3cccc([N+](=O)[O-])c3)n2)cc1`
stdout: 5.08

Attention now shifts to the item below.
stdin: # return recorded pIC50 for entry `COc1cccc(NC(=O)CCc2nc(-c3ccc(C(C)(C)C)cc3)no2)c1`
stdout: 6.64

* * *

# ASSAYED_SYSTEM: Endothelial PAS domain-containing protein 1 (Homo sapiens)
# ASSAY_METHOD_TEXT: HIF-1a and HIF-2a reporter inhibitors, SAR follow-up, cell-based, luminescence, MIAPaCa-2, 786-0, panel (AID 652011)
# CONDITION_SUMMARY: MIAPaCa-2/PANC HIF reporter, luciferase luminescence, desferoxamine, overnight; HIF2a PANC cells; mean of runs
Calls of active or inactive are those of the source.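 How the source made its calls: active means IC50 of 10 µM or lower on HIF-2a in both cell lines, but not on HIF-1a; inactive means the rest, including compounds also potent on HIF-1a.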
API: response.call in label 1 = active, label 0 = inactive

stdin: # lookup: test call for `CC(C)(C)NC(=O)CCc1nc(-c2ccccc2)no1`
stdout: label 0

stdin: # lookup: test call for `CC(C)NC(=O)CCc1nc(-c2ccc(C(C)(C)C)cc2)no1`
stdout: label 1

stdin: # lookup: test call for `CNC(=O)CCc1nc(-c2ccc(C(C)C)cc2)no1`
stdout: label 1

stdin: # lookup: test call for `CC(C)(C)c1ccc(-c2noc(CCC(=O)N3CCCCC3)n2)cc1`
stdout: label 0

stdin: # lookup: test call for CCC(C)NC(=O)CCc1nc(-c2ccc(C(C)(C)C)cc2)no1 (configuration not stated)
stdout: label 0

stdin: # lookup: test call for `CCCCc1ccc(-c2noc(CCC(=O)NC3CC3)n2)cc1`
stdout: label 0

stdin: # lookup: test call for `CC(C)(C)c1ccc(-c2noc(CCC(=O)O)n2)cc1`
stdout: label 1

stdin: # lookup: test call for CCCCc1ccc(-c2noc(CCC(=O)NC(C)CC)n2)cc1 (configuration not stated)
stdout: label 1

stdin: # lookup: test call for `CC(C)(C)c1ccc(-c2noc(CCC(=O)NC3CCCCC3)n2)cc1`
stdout: label 1

stdin: # lookup: test call for `CCNC(=O)CCc1nc(-c2ccccc2Cl)no1`
stdout: label 0

stdin: # lookup: test call for `CCCCc1ccc(-c2noc(CCC(=O)NCC)n2)cc1`
stdout: label 1

stdin: # lookup: test call for `COC(=O)CCc1nc(-c2ccc(C(C)(C)C)cc2)no1`
stdout: label 1

* * *

# ASSAYED_SYSTEM: Hypoxia-inducible factor 1-alpha (Homo sapiens)
# ASSAY_METHOD_TEXT: HIF-1a and HIF-2a reporter inhibitors, SAR follow-up, cell-based, luminescence, MIAPaCa-2, 786-0, panel (AID 652011)
# CONDITION_SUMMARY: MIAPaCa-2/PANC HIF reporter, luciferase luminescence, desferoxamine, overnight; HIF1a; mean of runs
MEASURED_METRIC: pIC50
Give bare numbers, as −log10 of the molar value.

Some compounds with known pIC50 results, for comparison:
stdin: # return recorded pIC50 for entry `CC(C)(C)c1ccc(-c2noc(CCC(=O)Nc3cccnc3)n2)cc1`
stdout: 4.48

stdin: # return recorded pIC50 for entry `COc1ccccc1NC(=O)CCc1nc(-c2ccc(C(C)(C)C)cc2)no1`
stdout: 6.19

stdin: # return recorded pIC50 for entry `CCOc1ccc(-c2noc(CCC(=O)O)n2)cc1`
stdout: 5.87

stdin: # return recorded pIC50 for entry `CCOc1ccccc1NC(=O)CCc1nc(-c2ccc(C(C)(C)C)cc2)no1`
stdout: 6.01

Attention now shifts to the item below.
stdin: # return recorded pIC50 for entry `CC(C)(C)c1ccc(-c2noc(CCC(=O)NC3CCCC3)n2)cc1`
stdout: 4.30

Data provenance: PubChem BioAssay AID652011
